- Tested on: VchCAST RNA-guided transposition machinery (E. coli BL21(DE3) host, lacZ target)
- experimentDescription: relative integration efficiency (T-LR orientation) vs wild-type transposon end (log2 (normalized fold change)); transposon end mutated: right end (5 bp flank + 75 bp right end); higher = more efficient transposition
Label rule met when relative integration efficiency (log2) is at or above -0.03; otherwise label rule not met.

- ACATTTGTTGATACAACCATAAAATGATAATTACACCCATAAAGGGATAATTATCACACCCATAAATTGATATTGCCTCTGATCATAGTCAGACCAACATTGCTACGACCCGTATTCGCACCGACAC: rule not met
- ACATTTGTTGATACAACCATAAAATGATAATTAATAATTACACCCATAAATTGATAATTATCAACAAACGCCCGGTCGCGGTACTCTGATCATAGTCAGACCAACATTGCTACGACCCGTATTCGCA: rule met
- ACATTTGTTGATACAACCATAAAATGATAATTAATAATTATTTATAATCCACCCATAAATTGATAATTATCAACAAACGCCCGGTCGCGGTACTCTGATCATAGTCAGACCAACATTGCTACGACCC: rule met
- ACATTTGTCGATACAACCATAAAATGATAATTACACCCATAAATTGATAATTATCACCCCCAATTTAACTATAACGCTCTGATCATAGTCAGACCAACATTGCTACGACCCGTATTCGCACCGACAC: rule met
- ACATTTGTTGATACAACCATAAAATGATAATTACACCCATAAATTGATAATTATCACACCCATAAATTGATATTGCCTCTCAACCATAAAATGATAATTAGATCATAGTCAGACCAAGCACCGACAC: rule met
- ACATTTGTTGATACAACCATAAAATGATAATTACTCTGATCATCACCCATAAATTGATAATTATCAGTGGGTATTTAACTATAACGAGTCAGACCAACATTGCTACGACCCGTATTCGCACCGACAC: rule not met
- ACATTTGTTGATACAACCATTTTTTGATAATTACACCCATAAATTGATAATTATCACACCCATAAATTGATATTGCCTCTGATCATAGTCAGACCAACATTGCTACGACCCGTATTCGCACCGACAC: rule not met
- ACATTTGTTGATACAACCATCCAATGATAATTACACCCATAAATTGATAATTATCACACCCATAAATTGATATTGCCTCTGATCATAGTCAGACCAACATTGCTACGACCCGTATTCGCACCGACAC: rule not met

Entry ACATTTGTTGATACAACCATAAAATGAATATTACACCCATAAATTGATAATTATCACACCCATAAATTGATATTGCCTCTGATCATAGTCAGACCAACATTGCTACGACCCGTATTCGCACCGACAC : is its relative integration efficiency (log2) no less than -0.03? rule not met

Same question, ACATTTGTTGATACAACCATAAAATGATAATTACACCCATAAATTGATAATTATCAGTGGGTATTTAACTATAACGCTCTGATCATAGTCAGACCAACATTGCTACGACCCGTATTCGCACCGACAC this time rule met

Also check ACATTTGTTGATACAACCATAAAATGATTATTACACCCATAAATTGATAATGATGACACCGAATTTAACTATAACGCTCTGATCATAGTCAGACCAACATTGCTACGACCCGTATTCGCACCGACAC rule met

Another sequence: ACATTTGTTGATACAACCATAAAGTGATATTTACAACCATAAAGTGATATTTATCACACCCATAAATTGATATTGCCTCTGATCATAGTCAGACCAACATTGCTACGACCCGTATTCGCACCGACAC rule not met

Repeat for the following sequence: ACATTTGTTGATACAACCATAAAATGATAAAATGACCCATAAATTGATAATTATCACACCCATAAATTGATATTGCCTCTGATCATAGTCAGACCAACATTGCTACGACCCGTATTCGCACCGACAC rule met

# iterate: ACATTTGTTCATACAACCCTAAAATGATAATTACACCCATAAATTCATAATTATCACACCCAATTTAACTATAACGCTCTGATCATAGTCAGACCAACATTGCTACGACCCGTATTCGCACCGACAC rule not met

# repeat for ACATTTGTTGATACAACCATTAAATGATAATTCCACCCATAACTTGATAATTATCACACCCAATTTAACTATAACGCTCTGATCATAGTCAGACCAACATTGCTACGACCCGTATTCGCACCGACAC rule met

Record: ACATTTGTTGATACAACCATAAAATGATAATTACAACCATAAAGTGATATTTATCACACCCATAAATTGATATTGCCTCTGATCATAGTCAGACCAACATTGCTACGACCCGTATTCGCACCGACAC rule not met

Do the same for ACATTTGTTGATACAAAAATAAAATGATAATTACACCCATAAATTGATAATTATCACACCCATAAATTGATATTGCCTCTGATCATAGTCAGACCAACATTGCTACGACCCGTATTCGCACCGACAC please rule not met

Follow-up item: ACATTTGTTGATACACCCATAAATTGATATTGCCAACCATATATTGATATCTCTCACAACCATAAGTTGATATTTTCTCTGATCATAGTCAGACCAACATTGCTACGACCCGTATTCGCACCGACAC rule met

For ACATTTGTTGATACAACCATAAAATGATAATTAGAAACCATAATTGATAATTATCACACCCATAAATTGATATTGCCTCTGATCATAGTCAGACCAACATTGCTACGACCCGTATTCGCACCGACAC then? rule not met

Same lookup for ACATTTGTTGATACCACCATCAAATGGTAATTACACCCATACATTGATAATTATCACACCCAATTTAACTATAACGCTCTGATCATAGTCAGACCAACATTGCTACGACCCGTATTCGCACCGACAC , please. rule not met
